Ref: paper PMC11249646

# testedSystem: GST-CIB1 : F-scrambled peptide (Homo sapiens, UniProt Q99828)
# Construct: made in house; host or cells: BL-21 plus RIL cells (E. coli)
# testName: FP scrambled-peptide counter screen, 384-well format
# Assay type: binding
# reportedConditions: F-scrambled peptide; *: Curve in opposite direction
parameterMeasured: 384-well COUNTERSCREEN Confirm?

Solved cases (4 shown):
> print(dat)
                                   compound                              testedsystem                parametermeasured  resultvalue
1  COC(=O)c1ccc2c(c1)S(=O)(=O)N=C2Sc1cc(C)ccc1C  GST-CIB1 : F-scrambled peptide (Homo sapiens, UniProt Q99828)  384-well COUNTERSCREEN Confirm?          YES
2  Cc1ccc(S(=O)(=O)Nc2cnccc2C(=O)Nc2nc(-c3nc4ccccc4s3)cs2)cc1.O=C(O)C(F)(F)F  GST-CIB1 : F-scrambled peptide (Homo sapiens, UniProt Q99828)  384-well COUNTERSCREEN Confirm?          YES
3  N#Cc1cnc(NS(=O)(=O)c2ccc(NC(=O)Cc3ccc(F)c(Cl)c3)cc2)s1.O=C(O)C(F)(F)F  GST-CIB1 : F-scrambled peptide (Homo sapiens, UniProt Q99828)  384-well COUNTERSCREEN Confirm?          YES
4  O=c1[nH]sc2cc(Cl)ccc12 [NCGC00262908-01, ticlatone, reference compound]  GST-CIB1 : F-scrambled peptide (Homo sapiens, UniProt Q99828)  384-well COUNTERSCREEN Confirm?          YES

Kindly review the next compound as well.
Prompt: Reported 384-well COUNTERSCREEN Confirm? for GST-CIB1 : F-scrambled peptide (Homo sapiens, UniProt Q99828), given CN(C)C(=S)SSC(=S)N(C)C [NCGC00091563-02, thiram, reference compound] ?
Completion: YES

* * *

# testedSystem: CIB1 and αIIb interaction (CIB1-GST : F-αIIb peptide) (Homo sapiens)
# Construct: made in house; host or cells: BL-21 plus RIL cells (E. coli)
# Sequence (Q99828 1-191): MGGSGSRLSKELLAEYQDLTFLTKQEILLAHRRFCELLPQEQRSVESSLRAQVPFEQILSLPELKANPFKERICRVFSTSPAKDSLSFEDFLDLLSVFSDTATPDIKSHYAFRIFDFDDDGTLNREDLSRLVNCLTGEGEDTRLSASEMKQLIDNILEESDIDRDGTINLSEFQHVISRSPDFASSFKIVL
# testName: FP assay, 1536-well qHTS format (primary and confirmatory screen)
# Assay type: binding
# reportedConditions: qHTS primary screen of LOPAC/NPACT libraries; read-out: IC50
parameterMeasured: IC50 (µM)
// units = µM; emit number, no label

> print(dat)
                                 smilesrepr  parametermeasured  resultvalue
1  CNC(=O)c1ccccc1Nc1cc(Nc2ccc(N3CCOCC3)cc2OC)ncc1C(F)(F)F               IC50          6.3
2  O=C(c1cc(O)c(O)c([N+](=O)[O-])c1)c1ccccc1F               IC50         39.8

Prompt: Give IC50 (CIB1 and αIIb interaction (CIB1-GST : F-αIIb peptide) (Homo sapiens)) of the following compound: "COc1cc(N2CCC(N3CCN(C)CC3)CC2)ccc1Nc1ncc(Cl)c(Nc2ccccc2S(=O)(=O)C(C)C)n1"
Completion: 56.2

* * *

# testedSystem: CIB1 and αIIb interaction (CIB1-GST : F-αIIb peptide) (Homo sapiens)
# Construct: made in house; host or cells: BL-21 plus RIL cells (E. coli)
# testName: FP assay, 1536-well qHTS format (primary and confirmatory screen)
# Assay type: binding
# reportedConditions: qHTS primary screen hits, Table S2; negative sign = inhibitory curve
parameterMeasured: Curve Class
Form rule: numeric answer, no unit written next to it.

> print(dat)
                                   compound  parametermeasured  resultvalue
1  CCN(CC)CCOc1ccc(Nc2ncc3cc(-c4c(Cl)cccc4Cl)c(=O)n(C)c3n2)cc1.Cl.Cl.O [NCGC00261745-01]        Curve Class         -2.2
2  CCCCCCCCCCCCCCCC[N+](C)(C)CCN(Cc1ccc(OC)cc1)c1ncccn1.[Br-] [NCGC00016507-05]        Curve Class         -2.2

Next compound, Curve Class to be filled in.
Prompt: Quick one: Curve Class for CCC(=O)NC(c1ccco1)c1cc(Br)c2cccnc2c1O (stereo not drawn) [NCGC00183688-01] ?
Completion: -2.4

* * *

Each item that follows carries a reported Curve Class (counterscreen).
# testedSystem: GST-CIB1 : F-scrambled peptide (Homo sapiens, UniProt Q99828)
# Construct: made in house; host or cells: BL-21 plus RIL cells (E. coli)
# Sequence (Q99828 1-191): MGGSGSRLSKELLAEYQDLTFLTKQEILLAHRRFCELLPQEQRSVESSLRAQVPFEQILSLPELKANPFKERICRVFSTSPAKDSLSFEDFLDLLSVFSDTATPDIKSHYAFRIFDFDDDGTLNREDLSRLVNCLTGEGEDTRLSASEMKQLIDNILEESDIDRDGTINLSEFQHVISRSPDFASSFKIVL
# testName: FP scrambled-peptide counter screen, 1536-well format
# Assay type: binding
# reportedConditions: counterscreen, qHTS curve class; negative sign = inhibitory curve
Write no unit; give the number alone.

Field: example entries. Status: answers known.
> print(dat)
                                   compound  resultvalue
1  COc1ccc2c(c[n+](C)c3c4cc5c(cc4ccc23)OCO5)c1OC.[Cl-]         -2.2
2  NC(=O)c1ccc(Cc2c(-c3cccc(-c4ccccc4)c3)nn(-c3nc(C(=O)O)cs3)c2O)cc1.O=C(O)C(F)(F)F         -2.2
3  CCN(CC)CCN(Cc1ccc(-c2ccc(C(F)(F)F)cc2)cc1)C(=O)Cn1c(SCc2ccc(F)cc2)nc(=O)c2c1CCC2         -2.2
4  CC1=C(O)C(=O)C=C2C1=CC=C1[C@@]2(C)CC[C@@]2(C)[C@@H]3C[C@](C)(C(=O)O)CC[C@]3(C)CC[C@]12C         -2.1
5  Cl.N=C(NCCCCCCNC(=N)NC(=N)Nc1ccc(Cl)cc1)NC(=N)Nc1ccc(Cl)cc1         -1.2
6  O=C(c1ccccc1)c1no[n+]([O-])c1C(=O)c1ccccc1         -1.4
7  C=CCNc1oc(-c2ccc(Cl)cc2)nc1C#N.O=C(O)C(F)(F)F         -1.2
8  Cc1cc(/N=N/c2ccc(S(=O)(=O)Nc3ccccn3)cc2)c(N)cc1O         -1.2

Prompt: Fill blank: measured Curve Class (counterscreen) of the compound "O=C(O)C(F)(F)F.O=C(c1ccc(F)cc1)c1no[n+]([O-])c1C(=O)c1ccc(F)cc1" is ____.
Completion: -2.2

Prompt: I am curious: what Curve Class (counterscreen) value has been reported for CCOC(=O)c1[nH]c2c(c1C)C(=S)CC(c1ccco1)C2.O=C(O)C(F)(F)F (stereo not drawn) ?
Completion: -1.4

Prompt: What value of Curve Class (counterscreen) has been recorded for this entry: CCOC(=O)CC(SP(=S)(OC)OC)C(=O)OCC (stereo not drawn)
Completion: -1.4

Prompt: Report Curve Class (counterscreen) for CCN1C(=O)c2ccccc2[S+]([O-])c2ccc(C(=O)NCc3cccc(F)c3)cc21 (stereo not drawn) please.
Completion: -1.4

* * *

Reported IC50 values for the following compounds.
# testedSystem: GST-CIB1 : F-scrambled peptide (Homo sapiens)
# Construct: made in house; host or cells: BL-21 plus RIL cells (E. coli)
# testName: FP scrambled-peptide counter screen, 1536-well format
# Type: binding
# reportedConditions: Table S3, counterscreen; read-out: IC50 [μM] (counterscreen)
Return type: number; implicit unit µM.

compound	IC50, µM
O=C(Nc1nc(-c2ccccc2)cs1)c1ccccc1NS(=O)(=O)c1ccc(F)cc1.O=C(O)C(F)(F)F [NCGC00247844-02]	50.1
CO[C@H](C(=O)[C@@H](O)[C@@H](C)O)[C@@H]1Cc2cc3cc(C[C@H]4C[C@H](O[C@H]5C[C@@H](O)[C@H](O)[C@@H](C)O5)[C@@H](O)[C@@H](C)O4)c(C)c(O)c3c(O)c2C(=O)[C@H]1O[C@@H]1C[C@H](O[C@@H]2C[C@H](O[C@@H]3C[C@](O)(CO)[C@@H](O)[C@H](C)O3)[C@@H](O)[C@H](C)O2)[C@@H](O)[C@H](C)O1 [NCGC00162423-04]	15.8
O=C(O)c1cc(/N=N/c2ccc(S(=O)(=O)Nc3ccccn3)cc2)ccc1O [NCGC00090903-09]	39.8
COc1ccccc1Nc1ccc2c(O)cc(S(=O)(=O)O)cc2c1.O=C(O)C(F)(F)F [NCGC00372954-01]	22.4

Switching to the query record.
Prompt: Return reported IC50; argument: CC(O)C(=O)O.CCOc1ccc2nc3cc(N)ccc3c(N)c2c1.O [NCGC00096056-02]
Completion: 31.6
